Listed here: items and their measured IC50.
# target.entity: His-BIR3 (241-356, XIAP) (Homo sapiens (Human), UniProt P98170)
# experimental.protocol: XIAP-BIR3/SMAC Homogeneous Time Resolved Fluorescence (HTRF) Assay
# condition.details: fluorescein labeled SMAC peptide
reported.endpoint: IC50 (nM)

1. CN[C@@H](C)C(=O)N[C@H](C(=O)N1C[C@@H](NC(=O)c2ccc(C(=O)Nc3ccc4c(c3)CN(C(=O)[C@@H](NC(=O)[C@H](C)NC)C(C)(C)SCCO)[C@H](C(=O)N[C@@H]3CCCc5ccccc53)C4)cc2)C[C@H]1C(=O)N[C@@H]1CCCc2ccccc21)C(C)(C)C ... 14
2. CN[C@@H](C)C(=O)N[C@H](C(=O)N1C[C@@H](NC(=O)c2ccc(C(=O)Nc3ccc4c(c3)CN(C(=O)[C@@H](NC(=O)[C@H](C)NC)C(C)(C)SCC(=O)N3CCCCC3)[C@H](C(=O)N[C@@H]3CCCc5ccccc53)C4)cc2)C[C@H]1C(=O)N[C@@H]1CCCc2ccccc21)C(C)(C)C ... 27
3. CN[C@@H](C)C(=O)N[C@H](C(=O)N1Cc2cc(C(=O)Nc3ncc(C(=O)N[C@H]4C[C@@H](C(=O)N[C@@H]5CCCc6ccccc65)N(C(=O)[C@@H](NC(=O)[C@H](C)NC)C(C)(C)C)C4)s3)ccc2C[C@H]1C(=O)N[C@@H]1CCCc2ccccc21)C(C)(C)C ... 17
4. CN[C@@H](C)C(=O)N[C@H](C(=O)N1C[C@@H](NC(=O)c2ccc(C(=O)Nc3ccc4c(c3)CN(C(=O)[C@@H](NC(=O)[C@H](C)NC)C(C)(C)SCC(=O)NCCO)[C@H](C(=O)N[C@@H]3CCCc5ccccc53)C4)cc2)C[C@H]1C(=O)N[C@@H]1CCCc2ccccc21)C(C)(C)C ... 17

---

# target.entity: His-BIR3 (241-356, XIAP) (Homo sapiens (Human))
# experimental.protocol: XIAP-BIR3/SMAC Homogeneous Time Resolved Fluorescence (HTRF) Assay
# condition.details: fluorescein labeled SMAC peptide
pIC50: −log10 of the molar value.
reported.endpoint: pIC50

1. CN[C@@H](C)C(=O)N[C@H](C(=O)N1Cc2cc(NC(=O)c3ccc(C(=O)N[C@H]4C[C@@H](C(=O)N[C@@H]5CCCc6ccccc65)N(C(=O)[C@@H](NC(=O)[C@H](C)NC)C(C)(C)C)C4)cc3)ccc2C[C@H]1C(=O)N[C@H](C)c1ccccc1F)C(C)(C)C ... 7.74
2. CN[C@@H](C)C(=O)N[C@H](C(=O)N1C[C@@H](NC(=O)c2ccc(C(=O)Nc3ccc4c(c3)CN(C(=O)[C@@H](NC(=O)[C@H](C)NC)C(C)(C)SCC(=O)Nc3nccs3)[C@H](C(=O)N[C@@H]3CCCc5ccccc53)C4)cc2)C[C@H]1C(=O)N[C@@H]1CCCc2ccccc21)C(C)(C)C ... 7.38
3. CN[C@@H](C)C(=O)N[C@H](C(=O)N1Cc2cc(NC(=O)c3cccc4c3ccn4C(=O)N[C@H]3C[C@@H](C(=O)N[C@@H]4CCCc5ccccc54)N(C(=O)[C@@H](NC(=O)[C@H](C)NC)C(C)(C)C)C3)ccc2C[C@H]1C(=O)N[C@H](C)c1ccccc1F)C(C)(C)C ... 7.27
4. CN[C@@H](C)C(=O)N[C@H](C(=O)N1C[C@@H](NC(=O)c2ccc(C(=O)Nc3ccc4c(c3)CN(C(=O)[C@@H](NC(=O)[C@H](C)NC)C(C)(C)SCC(=O)N(C)C)[C@H](C(=O)N[C@@H]3CCCc5ccccc53)C4)cc2)C[C@H]1C(=O)N[C@@H]1CCCc2ccccc21)C(C)(C)C ... 7.85

Hey, just so you know, these numbers are from patent US9783573B2.
